Quick reference: self-splicing fitness (ln) of the listed items.
- PROCEDURE DETAILS: self-splicing fitness, log relative to wild type (ln ratio); higher = more splicing; Tetrahymena group I intron in knt gene, E. coli kanamycin selection, DiMSum; sequences stand for … in CUCUCU…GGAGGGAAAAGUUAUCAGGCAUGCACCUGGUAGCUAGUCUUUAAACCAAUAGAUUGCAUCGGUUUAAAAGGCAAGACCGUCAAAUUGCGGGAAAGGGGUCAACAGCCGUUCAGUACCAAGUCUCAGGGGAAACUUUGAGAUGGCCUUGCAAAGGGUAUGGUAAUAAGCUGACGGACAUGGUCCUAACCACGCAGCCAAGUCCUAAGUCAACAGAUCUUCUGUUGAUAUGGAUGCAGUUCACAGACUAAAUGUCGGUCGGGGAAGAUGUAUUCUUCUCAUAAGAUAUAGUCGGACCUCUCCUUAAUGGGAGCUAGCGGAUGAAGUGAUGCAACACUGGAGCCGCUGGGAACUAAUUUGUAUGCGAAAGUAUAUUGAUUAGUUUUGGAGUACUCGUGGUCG;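 also: selection with 25 µg/mL kanamycin versus none on LB agar overnight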
- TEST SETTINGS: 30 °C

Below, each entry is followed by its recorded self-splicing fitness (ln) result.
1) AGUGAGCAAUAUUACGACAU
-1.07
2) UGACAGCAAUAUUACGCUGU
-4.01

The sequence listed as AGGUAGCAAUAUUACGAGGG shows self-splicing fitness (ln) equal to -3.97

The sequence listed as CUCUAGCAAUAUUACGAGUU shows self-splicing fitness (ln) equal to -3.44

The sequence listed as CAUAAGCAAUAUUACGUAUU shows self-splicing fitness (ln) equal to -3.24

The sequence listed as CAGAAGCAAUAUUACGGUAA shows self-splicing fitness (ln) equal to -3.62

The sequence listed as AGAUAGCAAUAUUACGCUCA shows self-splicing fitness (ln) equal to -0.765

The sequence listed as CAGUAGCAAUAUUACGUGGU shows self-splicing fitness (ln) equal to -2.56

The sequence listed as GGGCAGCAAUAUUACGCUGU shows self-splicing fitness (ln) equal to -2.65

The sequence listed as CACCAGCAAUAUUACGCACU shows self-splicing fitness (ln) equal to -3.96

The sequence listed as UGUGAGCAAUAUUACGCCCA shows self-splicing fitness (ln) equal to -0.902

The sequence listed as CACUAGCAAUAUUACGCGGU shows self-splicing fitness (ln) equal to -4.59

The sequence listed as UCACAGCAAUAUUACGAUAA shows self-splicing fitness (ln) equal to -1.65

The sequence listed as UGUGAGCAAUAUUACGUUGG shows self-splicing fitness (ln) equal to -2.86

----------
- PROCEDURE DETAILS: self-splicing fitness, log relative to wild type (ln ratio); higher = more splicing; Tetrahymena group I intron in knt gene, E. coli kanamycin selection, DiMSum; sequences stand for … in CUCUCU…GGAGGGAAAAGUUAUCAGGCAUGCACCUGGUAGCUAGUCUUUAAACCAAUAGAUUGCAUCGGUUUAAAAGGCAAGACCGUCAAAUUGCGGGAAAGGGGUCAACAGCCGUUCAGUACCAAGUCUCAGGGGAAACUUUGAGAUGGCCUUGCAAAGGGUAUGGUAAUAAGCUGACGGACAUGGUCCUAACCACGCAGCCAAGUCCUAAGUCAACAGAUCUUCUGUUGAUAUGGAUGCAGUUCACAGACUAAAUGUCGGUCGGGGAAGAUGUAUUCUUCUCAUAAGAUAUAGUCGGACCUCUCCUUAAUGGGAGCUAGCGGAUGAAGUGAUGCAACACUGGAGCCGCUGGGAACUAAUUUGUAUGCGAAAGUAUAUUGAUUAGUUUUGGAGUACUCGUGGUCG
- TEST SETTINGS: 30 °C
PROPERTY: self-splicing fitness (ln)
The reply should be a number, written without any unit.

1. GUAUAGCAAUAUUACGCUUU
-3.51

The sequence listed as GGCUAGCAAUAUUACGUAUA shows self-splicing fitness (ln) equal to -1.27

The sequence listed as GAGAAGCAAUAUUACGGGGC shows self-splicing fitness (ln) equal to -3.04

The sequence listed as CCGUAGCAAUAUUACGCUAG shows self-splicing fitness (ln) equal to -3.02

The sequence listed as UGUAAGCAAUAUUACGGAAG shows self-splicing fitness (ln) equal to -1.91

The sequence listed as AACUAGCAAUAUUACGCGCC shows self-splicing fitness (ln) equal to -1.34

The sequence listed as CACAAGCAAUAUUACGGCCG shows self-splicing fitness (ln) equal to -0.104

The sequence listed as GCCCAGCAAUAUUACGAAGA shows self-splicing fitness (ln) equal to -1.46

The sequence listed as GAUGAGCAAUAUUACGAGUC shows self-splicing fitness (ln) equal to -4.11

The sequence listed as UGGCAGCAAUAUUACGAGGA shows self-splicing fitness (ln) equal to -2.34

The sequence listed as UUUUAGCAAUAUUACGUGUU shows self-splicing fitness (ln) equal to -4.5

The sequence listed as UAAGAGCAAUAUUACGUUUG shows self-splicing fitness (ln) equal to -2.33

The sequence listed as ACUAAGCAAUAUUACGGCUA shows self-splicing fitness (ln) equal to -0.685

The sequence listed as GACGAGCAAUAUUACGUUGU shows self-splicing fitness (ln) equal to -3.4

The sequence listed as GAGAAGCAAUAUUACGACGC shows self-splicing fitness (ln) equal to -0.75

The sequence listed as CUCUAGCAAUAUUACGCGAU shows self-splicing fitness (ln) equal to -3.29

----------
- PROCEDURE DETAILS: self-splicing fitness, log relative to wild type (ln ratio); higher = more splicing; Tetrahymena group I intron in knt gene, E. coli kanamycin selection, DiMSum; sequences stand for … in CUCUCU…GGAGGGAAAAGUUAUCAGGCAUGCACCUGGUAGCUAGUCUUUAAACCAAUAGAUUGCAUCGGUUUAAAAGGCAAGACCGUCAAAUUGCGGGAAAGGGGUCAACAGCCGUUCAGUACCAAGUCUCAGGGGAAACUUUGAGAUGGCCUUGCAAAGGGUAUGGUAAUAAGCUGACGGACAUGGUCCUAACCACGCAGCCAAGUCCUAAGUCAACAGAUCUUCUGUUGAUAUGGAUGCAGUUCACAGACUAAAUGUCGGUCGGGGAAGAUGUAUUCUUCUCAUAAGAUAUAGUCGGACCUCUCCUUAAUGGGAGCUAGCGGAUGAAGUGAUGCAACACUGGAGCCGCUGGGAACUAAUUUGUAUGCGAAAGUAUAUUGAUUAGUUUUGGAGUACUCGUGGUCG
- TEST SETTINGS: 30 °C
PROPERTY: self-splicing fitness (ln)
The reply should be a number, written without any unit.

Below, each entry is followed by its recorded self-splicing fitness (ln) result.
1. AGCGAGCAAUAUUACGGUAC
-3.58
2. UGGUAGCAAUAUUACGUAUU
-3.07
3. UUUCAGCAAUAUUACGUCCC
-1.43
4. AACUAGCAAUAUUACGCUUC
-3.74
5. AAGAAGCAAUAUUACGCAGA
-2.35
6. GCGUAGCAAUAUUACGUAUC
-3.35
7. CUUCAGCAAUAUUACGAGAU
-3.35
8. UACUAGCAAUAUUACGGGAA
-1.95
9. AGUGAGCAAUAUUACGCCGC
-1.96
10. AGGAAGCAAUAUUACGUCCA
-0.764

The sequence listed as AUUCAGCAAUAUUACGCUGC shows self-splicing fitness (ln) equal to -2.3

The sequence listed as AUUGAGCAAUAUUACGGUGA shows self-splicing fitness (ln) equal to -2.89

The sequence listed as GAAUAGCAAUAUUACGGGUG shows self-splicing fitness (ln) equal to -3.74

The sequence listed as AUGGAGCAAUAUUACGUUGC shows self-splicing fitness (ln) equal to -3.34

The sequence listed as ACUAAGCAAUAUUACGGACC shows self-splicing fitness (ln) equal to -1.4

The sequence listed as GUUCAGCAAUAUUACGUAGU shows self-splicing fitness (ln) equal to -0.247

----------
- PROCEDURE DETAILS: self-splicing fitness, log relative to wild type (ln ratio); higher = more splicing; Tetrahymena group I intron in knt gene, E. coli kanamycin selection, DiMSum; sequences stand for … in CUCUCU…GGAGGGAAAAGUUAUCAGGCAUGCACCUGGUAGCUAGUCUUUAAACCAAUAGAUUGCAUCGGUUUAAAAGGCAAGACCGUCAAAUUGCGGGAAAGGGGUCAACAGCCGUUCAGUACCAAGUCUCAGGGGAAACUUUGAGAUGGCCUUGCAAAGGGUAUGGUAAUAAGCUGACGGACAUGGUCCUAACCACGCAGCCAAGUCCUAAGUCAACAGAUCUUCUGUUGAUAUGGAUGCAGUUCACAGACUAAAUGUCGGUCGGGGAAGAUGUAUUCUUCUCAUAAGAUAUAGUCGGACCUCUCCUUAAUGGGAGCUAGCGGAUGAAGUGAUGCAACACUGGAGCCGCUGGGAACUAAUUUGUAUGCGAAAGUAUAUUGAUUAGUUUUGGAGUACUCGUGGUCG
- TEST SETTINGS: 37 °C
Quick reference: self-splicing fitness (ln) of the listed items.
The reply should be a number, written without any unit.

Below, each entry is followed by its recorded self-splicing fitness (ln) result.
1) ACAGAGCAAUAUUACGGCUC
-2.37
2) CGCUAGCAAUAUUACGGAUA
-2.14
3) GGCCAGCAAUAUUACGGACG
0.71
4) AAACAGCAAUAUUACGAGAG
-2.91
5) CGGCAGCAAUAUUACGCUCU
-0.612

The sequence listed as CCGAAGCAAUAUUACGGGAG shows self-splicing fitness (ln) equal to -2.46

The sequence listed as UCCCAGCAAUAUUACGCGGU shows self-splicing fitness (ln) equal to -0.898

The sequence listed as CUCCAGCAAUAUUACGCGCA shows self-splicing fitness (ln) equal to -2.56

The sequence listed as CCAAAGCAAUAUUACGUUGA shows self-splicing fitness (ln) equal to -0.401

The sequence listed as AAAGAGCAAUAUUACGUGAU shows self-splicing fitness (ln) equal to -1.81

The sequence listed as ACACAGCAAUAUUACGAGCA shows self-splicing fitness (ln) equal to -1.45
